Reference source: ChEMBL document CHEMBL3120141

Experiment: Volume of distribution at steady state in dog at 1 mg/kg, iv
Assay type: ADME, organism-based, Canis lupus familiaris
Parameters: dose 1 mg/kg, route intravenous
Details: in vivo, read-out: Vdss
Reported metric: Vd (L/kg)
Dear colleague, please return just the value in L/kg, with no unit written.

Please give the documented Vd of O=C1NN=C(c2ccc(OC3CCN(C4CCC4)CC3)cc2)[C@H]2C[C@@H]12
4.1

====

Target: Cytochrome P450 1A2 (Homo sapiens)
Sequence (P05177 whole entry): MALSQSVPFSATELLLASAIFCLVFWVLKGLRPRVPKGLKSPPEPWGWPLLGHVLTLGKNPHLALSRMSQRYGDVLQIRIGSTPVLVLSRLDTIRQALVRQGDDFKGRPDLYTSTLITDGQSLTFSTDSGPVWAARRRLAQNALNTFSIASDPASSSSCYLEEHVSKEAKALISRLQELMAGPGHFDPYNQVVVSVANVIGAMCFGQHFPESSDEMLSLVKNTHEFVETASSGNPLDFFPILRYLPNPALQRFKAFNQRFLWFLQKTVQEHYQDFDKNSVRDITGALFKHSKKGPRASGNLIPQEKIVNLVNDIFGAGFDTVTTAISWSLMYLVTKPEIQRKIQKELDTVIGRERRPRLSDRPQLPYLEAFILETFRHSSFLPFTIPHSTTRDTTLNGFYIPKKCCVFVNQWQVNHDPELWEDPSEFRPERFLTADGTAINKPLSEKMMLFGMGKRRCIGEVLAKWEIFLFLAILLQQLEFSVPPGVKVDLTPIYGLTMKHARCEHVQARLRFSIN
Assay: Inhibition of CYP1A2 (unknown origin)
Type: ADME
Reported metric: IC50

Please give the documented IC50 of O=C1NN=C(c2ccc(OC3CCN(C4CCC4)CC3)cc2)[C@H]2C[C@@H]12
> 30 µM

More entries:
Please give the documented IC50 of O=C1NN=C(c2ccc(OC3CCN(C4CCC4)CC3)cc2)[C@@H]2C[C@H]12
> 30 µM
